# System: SNB-19
# assay-comment: NCI tumour cell line growth inhibition, 48 h
Calls of active or inactive are those of the source. Cut-off read from the data, not from the text of the source: active = GI50 up to about 1.1 µM and inactive = higher.
parameter: GI50

> print(dat)
                                   compound       recorded.value
1  OCC1C(O)C(O)[C@@H]2SCCN12 (stereo not given in full)  > 100 µM (inactive)

**Q:** Can you look up the measured GI50 of Cn1cc(NC(=O)c2cc(NC(=O)CNC(=N)N)cn2C)cc1C(=O)NCCC(=N)N [NETROPSIN CHLORIDE] for me?
**A:** > 100 µM (inactive)

**Q:** // GI50 lookup, key: COC1CC(C)C(OC)C2=CC(=O)C=C(NC(=O)/C(C)=C/C=C\C(C)C(OC(N)=O)/C(C)=C\C(C)C1OC)C2=O (stereo not given)
**A:** 0.495 µM (active)

---

# Tested on: SK-MEL-2
# assay-comment: NCI tumour cell line growth inhibition, 48 h
Active and inactive are the calls of the source. Cut-off read from the data, not from the text of the source: active = GI50 up to about 1.1 µM and inactive = higher.
Use one of these outcomes when replying: y for active, n for inactive

molecule	cat
CC(C)C1OC(=O)C(Cc2ccccc2)N(C)C(=O)C(C(C)C)OC(=O)C(Cc2ccccc2)N(C)C(=O)C(C(C)C)OC(=O)C(Cc2ccccc2)N(C)C1=O (stereo not given)	y
COc1ccccc1C(=O)N(C)c1ccc(Cl)c(C(=O)OC(C)C)c1	n
N=c1nc(N)c2cc3c(N)nc(=N)c3cc12	n

**Q:** // outcome(item) with item = COc1ccc(-c2cc(O)c3c(C)ccnc3n2)cc1
**A:** n

**Q:** Which outcome was entered for the molecule CCOC(=O)CC(N1CC1)N1CC1 in this test?
**A:** n

---

# System: DU-145
# assay-comment: NCI tumour cell line growth inhibition, 48 h
The source made the active and inactive calls. Rule as the data show it: active = GI50 up to about 1.1 µM and inactive = higher.
parameter: GI50

molecule	GI50
CC(C)C1OC(=O)C(Cc2ccccc2)N(C)C(=O)C(C(C)C)OC(=O)C(Cc2ccccc2)N(C)C(=O)C(C(C)C)OC(=O)C(Cc2ccccc2)N(C)C1=O (stereo not given)	1.62 µM (inactive)
Cc1ccc(S(=O)(=O)NC(=O)Nc2cccc(S(N)(=O)=O)c2)cc1	> 100 µM (inactive)
CCP(=O)(CC)C(Cl)(Cl)C(O)C(Cl)(Cl)Cl (stereo not given)	> 100 µM (inactive)
CC1(CC(=O)OC(C#C[Si](C)(C)C)Cc2ccccc2)OCCO1 (stereo not given)	> 100 µM (inactive)

Shifting focus to the molecule that follows.
**Q:** Quick one: GI50 for Cc1c(C)c2c(c(N)c1C#N)C(=O)N(NC(=O)c1ccccc1)C2=O ?
**A:** > 100 µM (inactive)

---

# Tested on: SW-620
# assay-comment: NCI tumour cell line growth inhibition, 48 h
Active and inactive are the calls of the source. No stated cut-off is given here; in the data, active = GI50 up to about 1.1 µM and inactive = higher.
parameter: GI50

Reference set, count: 10
> print(dat)
                                    compound        recorded.value
 1  CCN(CC)CCCCC1CCN(CC(=O)N2CC(C)C(=O)Nc3ccccc32)CC1 (stereo unspecified)   > 100 µM (inactive)
 2    O=C(O)c1cc(-c2ccc3c(O)ccc(O)c3c2)ccc1O    5.82 µM (inactive)
 3  O=C(CCn1[nH]c(=O)c(Cl)c(Cl)c1=O)NOCCCc1ccccc1   > 100 µM (inactive)
 4              CN(C)c1n/c(=N/c2ncn[nH]2)ss1   > 100 µM (inactive)
 5  O=C(Nc1ccc(Cl)cc1)NS(=O)(=O)c1ccc2c(c1)CCC2    35.3 µM (inactive)
 6  Cc1coc2c1CC1(C)C(CCC(O)C1C)C2 (stereo unspecified)   > 100 µM (inactive)
 7        CC(C)C(=O)Nc1nc2[nH]cnc2c(=O)[nH]1   > 100 µM (inactive)
 8  O=[N+]([O-])C(=C(N1CCCCC1)N1CCCCC1)/C(Cl)=C(\Cl)[N+](=O)[O-]    3.36 µM (inactive)
 9          Cc1ccc(SCC(=O)C2=C(O)CCCC2=O)cc1   > 100 µM (inactive)
10       COc1ccc(CSCc2cc(OC)c(OC)c(OC)c2)cc1  > 83.2 µM (inactive)

**Q:** What does the data say about its GI50? Entry: O=c1c2cc(Br)ccc2ncn1COCc1ccccc1
**A:** > 100 µM (inactive)
